- Test system: Caco-2 cell monolayer
- Method Summary: Caco-2 monolayer metabolism experiment, metabolites identified via UHPLC-DAD-MS(/MS)
- Type: in vitro ADME, human
- Condition Summary: 10 µM, 3 and 5 h

Molecule	Extent of metabolism (in words)
O=c1cc(-c2ccc(O)cc2)oc2c([C@@H]3O[C@H](CO)[C@@H](O)[C@H](O)[C@H]3O)c(O)cc(O)c12 [V, vitexin]	very limited metabolism
O=c1cc(-c2ccc(O)cc2)oc2c([C@@H]3O[C@H](CO)[C@@H](O)[C@H](O)[C@H]3O)c(O)c([C@@H]3OC[C@H](O)[C@H](O)[C@H]3O)c(O)c12 [IS, isoschaftoside]	very limited metabolism

---

- System: Caco-2 cell monolayer
- Method Summary: Caco-2 monolayer metabolism experiment, metabolites identified via UHPLC-DAD-MS(/MS)
- Format: in vitro ADME, human
- Condition Summary: 100 µM, 3 and 5 h

Smi	Extent of metabolism (in words)
O=c1cc(-c2ccc(O)c(O)c2)oc2c([C@@H]3O[C@H](CO)[C@@H](O)[C@H](O)[C@H]3O)c(O)cc(O)c12	extensive metabolism
O=c1cc(-c2ccc(O)c(O)c2)oc2cc(O)c([C@@H]3O[C@H](CO)[C@@H](O)[C@H](O)[C@H]3O)c(O)c12	extensive metabolism
O=c1cc(-c2ccc(O)cc2)oc2cc(O)c([C@@H]3O[C@H](CO)[C@@H](O)[C@H](O)[C@H]3O)c(O)c12	extensive metabolism

---

- Method Summary: MTT assay under metabolic conditions (cell viability)
- Format: cell-based, human
- Condition Summary: human, Caco-2, 10 µM in HBSS (pH 6.0), 5 h incubation, read-out: Viability of Caco-2 cells
Endpoint: viability at 5 h, 10 µM
Answer as a quantity: numeral, then unit.

Give the measured viability at 5 h, 10 µM of O=c1cc(-c2ccc(O)cc2)oc2c([C@@H]3O[C@H](CO)[C@@H](O)[C@H](O)[C@H]3O)c(O)cc(O)c12 .
92%

Same question for O=c1cc(-c2ccc(O)cc2)oc2cc(O)c([C@@H]3O[C@H](CO)[C@@H](O)[C@H](O)[C@H]3O)c(O)c12 please.
92%

---

- Method Summary: Stability testing in test buffer (HBSS pH 6.0) under assay conditions, HPLC-DAD
- Format: physicochemical
- Condition Summary: 10 µM in HBSS pH 6.0, 37 °C, 5% CO2; after 3 h of incubation
Endpoint: Stability (content relative to t = 0 h)

Molecule	Meas Value
O=c1cc(-c2ccc(O)cc2)oc2cc(O)c([C@@H]3O[C@H](CO)[C@@H](O)[C@H](O)[C@H]3O)c(O)c12	96%
O=c1cc(-c2ccc(O)c(O)c2)oc2cc(O)c([C@@H]3O[C@H](CO)[C@@H](O)[C@H](O)[C@H]3O)c(O)c12	approximately 100%
O=c1cc(-c2ccc(O)c(O)c2)oc2c([C@@H]3O[C@H](CO)[C@@H](O)[C@H](O)[C@H]3O)c(O)cc(O)c12	approximately 100%
O=c1cc(-c2ccc(O)cc2)oc2c([C@@H]3O[C@H](CO)[C@@H](O)[C@H](O)[C@H]3O)c(O)c([C@@H]3OC[C@H](O)[C@H](O)[C@H]3O)c(O)c12 [IS, isoschaftoside]	approximately 100%

Moving on to the next molecule.
For the molecule shown here, O=c1cc(-c2ccc(O)cc2)oc2c([C@@H]3O[C@H](CO)[C@@H](O)[C@H](O)[C@H]3O)c(O)cc(O)c12 , give the reported Stability (content relative to t = 0 h).
approximately 100%

Values were extracted from paper PMC8234803.
